Entries with reported pIC50 on human urokinase (Homo sapiens, UniProt P00749)
Where a name gives a salt, the structure may show the parent alone.
One number for each entry, as −log10 of the molar value.

Would you please look over these solved cases?
{"COMPOUND": "CC(=O)c1ccc(NC(=O)[C@H](Cc2ccc(OCc3ccccc3)cc2)NC(=O)c2ccc(C(=N)N)cc2)cc1 [compound 12]", "pIC50": 5.40}
{"COMPOUND": "CC(=O)c1ccc(NC(=O)[C@H](Cc2ccccc2)NC(=O)c2ccc(NC(=N)N)cc2)cc1 [compound 15]", "pIC50": 3.72}
{"COMPOUND": "Cc1ccc(NC(=O)[C@H](Cc2ccccc2)NC(=O)c2ccc(NC(=N)N)cc2)cc1 [compound 13, hydrochloride]", "pIC50": 3.38}

Dear colleague, could you send me pIC50 for each of the items below? Thanks.
1. CC(=O)c1ccc(NC(=O)[C@H](Cc2ccccc2)NC(=O)c2ccc(C(=N)N)cc2)cc1 [compound 11]
2. N=C(N)Nc1ccc(C(=O)N[C@@H](Cc2ccccc2)C(=O)Nc2ccc(C(=O)c3ccccc3)cc2)cc1 [compound 16]

4.89
4.40

----------
So I've got a bunch of compounds here, and I need their pIC50 values.
# TARGET OR SYSTEM: human plasma kallikrein (Homo sapiens)
# Sequence (P03952 391-638 limits assumed): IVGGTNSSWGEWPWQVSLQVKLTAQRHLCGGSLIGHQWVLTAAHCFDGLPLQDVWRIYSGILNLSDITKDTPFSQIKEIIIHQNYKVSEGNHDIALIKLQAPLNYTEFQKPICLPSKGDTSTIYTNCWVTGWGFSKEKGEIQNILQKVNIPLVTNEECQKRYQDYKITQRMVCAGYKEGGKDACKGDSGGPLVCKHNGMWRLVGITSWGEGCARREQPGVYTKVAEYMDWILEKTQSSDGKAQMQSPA
# Sequence (P03952 20-390 partner limits assumed): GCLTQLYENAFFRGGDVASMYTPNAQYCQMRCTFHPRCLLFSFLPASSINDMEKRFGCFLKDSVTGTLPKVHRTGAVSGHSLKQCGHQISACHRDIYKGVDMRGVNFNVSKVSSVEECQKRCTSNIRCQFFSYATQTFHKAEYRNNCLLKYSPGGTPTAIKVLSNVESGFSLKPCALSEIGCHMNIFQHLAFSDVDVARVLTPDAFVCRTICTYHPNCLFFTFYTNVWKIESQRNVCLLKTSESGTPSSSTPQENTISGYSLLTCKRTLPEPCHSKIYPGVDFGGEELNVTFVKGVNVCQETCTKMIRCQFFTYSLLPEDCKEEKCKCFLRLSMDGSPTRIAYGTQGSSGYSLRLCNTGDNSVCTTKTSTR
# PROTOCOL SUMMARY: Anti-plasma kallikrein activity: inhibition of S-2302 decomposition
# TEST CONTEXT: Table 2; substrate S-2302, pH 7.8, 37°C; read-out: Plasma Kallikrein S-2302 (concentration I₅₀)
Counter-ions that a name gives are not always drawn.
One number for each entry, as −log10 of the molar value.

Would you please look over these solved cases?
{"COMPOUND": "Cc1ccc(NC(=O)[C@H](Cc2ccccc2)NC(=O)c2ccc(NC(=N)N)cc2)cc1 [compound 13, hydrochloride]", "pIC50": 5.38}
{"COMPOUND": "CN(Cc1ccncc1)C(=O)[C@H](Cc1ccccc1)NC(=O)c1ccc(NC(=N)N)cc1", "pIC50": 3.00}
{"COMPOUND": "CC(=O)c1ccc(NC(=O)[C@H](Cc2ccccc2)NC(=O)c2ccc(NC(=N)N)cc2)cc1", "pIC50": 5.66}

Dear colleague, could you send me pIC50 for each of the items below? Thanks.
1. N=C(N)NCCCC(=O)N[C@@H](Cc1ccc([N+](=O)[O-])cc1)C(=O)Nc1ccc(C(=O)c2ccccc2)cc1
2. COc1ccc(NC(=O)[C@H](Cc2ccccc2)NC(=O)c2ccc(NC(=N)N)cc2)cn1
3. CC(=O)c1ccc(NC(=O)[C@H](Cc2ccccc2)NC(=O)c2ccc(C(=N)N)cc2)cc1
4. N=C(N)Nc1ccc(C(=O)N[C@@H](Cc2ccc([N+](=O)[O-])cc2)C(=O)Nc2ccc(C(=O)c3ccccc3)cc2)cc1
5. COc1ccc(NC(=O)[C@H](Cc2ccc(OCc3ccccc3)cc2)NC(=O)c2ccc(NC(=N)N)cc2)cn1
6. NCCc1ccc(C(=O)N[C@@H](Cc2ccccc2)C(=O)Nc2ccc(C(=O)c3ccccc3)cc2)cc1
7. N=C(N)Nc1ccc(C(=O)N[C@@H](Cc2ccccc2)C(=O)Nc2ccc(C(=O)c3ccccc3)cc2)cc1

[4.25, 4.92, 6.10, 4.96, 4.92, 4.51, 5.44]

pIC50 reading for CC1CCC(NC(=O)[C@H](Cc2ccccc2)NC(=O)c2ccc(NC(=N)N)cc2)CC1C (stereo partly drawn) : 4.82
